Just for reference, ChEMBL document CHEMBL3988442 is where these values come from.

Target: Tyrosyl-tRNA synthetase, putative (Trypanosoma cruzi (strain CL Brener)) (UniProt Q4DSP6)
Sequence (whole entry): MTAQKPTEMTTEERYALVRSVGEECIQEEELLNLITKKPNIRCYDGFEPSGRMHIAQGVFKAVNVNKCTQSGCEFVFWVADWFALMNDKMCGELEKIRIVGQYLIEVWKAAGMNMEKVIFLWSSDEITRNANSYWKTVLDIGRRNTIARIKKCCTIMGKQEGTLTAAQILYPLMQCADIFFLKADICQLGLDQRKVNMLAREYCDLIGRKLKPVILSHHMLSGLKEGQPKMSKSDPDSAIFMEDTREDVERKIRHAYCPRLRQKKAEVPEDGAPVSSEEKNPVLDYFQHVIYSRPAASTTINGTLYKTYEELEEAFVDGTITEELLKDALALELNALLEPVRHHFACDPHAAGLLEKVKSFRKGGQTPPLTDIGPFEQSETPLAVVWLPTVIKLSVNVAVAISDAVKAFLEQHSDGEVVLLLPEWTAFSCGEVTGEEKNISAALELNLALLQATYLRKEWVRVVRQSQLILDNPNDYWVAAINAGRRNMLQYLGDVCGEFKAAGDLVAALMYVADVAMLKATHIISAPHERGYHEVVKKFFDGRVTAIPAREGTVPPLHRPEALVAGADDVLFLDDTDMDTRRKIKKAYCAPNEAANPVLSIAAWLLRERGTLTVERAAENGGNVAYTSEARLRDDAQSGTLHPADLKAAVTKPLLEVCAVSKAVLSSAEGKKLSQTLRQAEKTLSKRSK
Experiment: Trypanosoma cruzi tyrosyl tRNA synthetase (TcYRS) _High Tyrosine SOP
Type: functional
Design: scale not given: in the data most compounds retested in dose-response had high values
Conditions: 30 µM
Entries and their Percent Effect values follow.
// units = %; emit number, no label

Worked examples, 8 molecules total:
| molecule | system-under-test | Percent Effect, % |
| --- | --- | --- |
| COc1ccc(CN(C)[C@@H]2CN(C(=O)c3cccs3)C[C@H]2O)cc1 | Tyrosyl-tRNA synthetase, putative (Trypanosoma cruzi (strain CL Brener)) (UniProt Q4DSP6) | 5.38 |
| COCCN1C(=O)[C@]2(CC[C@@H]3CN(C(=O)NCC(C)C)C[C@@H]32)N=C1C | Tyrosyl-tRNA synthetase, putative (Trypanosoma cruzi (strain CL Brener)) (UniProt Q4DSP6) | 1.04 |
| CC(C)c1nc(C2CCCN2Cc2ccno2)no1 (stereo not given) | Tyrosyl-tRNA synthetase, putative (Trypanosoma cruzi (strain CL Brener)) (UniProt Q4DSP6) | 2.91 |
| CCc1ncc2c(n1)CN(C(=O)COC)C2 | Tyrosyl-tRNA synthetase, putative (Trypanosoma cruzi (strain CL Brener)) (UniProt Q4DSP6) | 9.68 |
| CC(NC(=O)Nc1cc(F)ccc1N1CCCCC1)c1nncn1C (stereo not given) | Tyrosyl-tRNA synthetase, putative (Trypanosoma cruzi (strain CL Brener)) (UniProt Q4DSP6) | 1.48 |
| CC(C)NC(=O)[C@@H]1C[C@H](N)CN1C(=O)c1cc2ccccc2[nH]c1=O | Tyrosyl-tRNA synthetase, putative (Trypanosoma cruzi (strain CL Brener)) (UniProt Q4DSP6) | 8.42 |
| CCN(CC)C(CNS(=O)(=O)c1ccc(C(=O)NC)cc1)c1ccco1 (stereo not given) | Tyrosyl-tRNA synthetase, putative (Trypanosoma cruzi (strain CL Brener)) (UniProt Q4DSP6) | 9.9 |
| Cc1ccc(CNC(=O)N(Cc2ccccc2F)C2CC2)cn1 | Tyrosyl-tRNA synthetase, putative (Trypanosoma cruzi (strain CL Brener)) (UniProt Q4DSP6) | 6.01 |

Query: Endpoint output: Percent Effect of `O=C(O)C1(Cc2cc(-c3cccc(F)c3)no2)CCOCC1` . Value?
Result: 2.15

Query: So what's the measured Percent Effect for this one? `O=C(Cn1c(=O)n(Cc2ccco2)c2ncccc21)NC1CCCCC1`
Result: 6.45

Query: Given the molecule `Cc1nc2cc(=O)[nH]n2c(C)c1CC(=O)Nc1ccc2ccccc2n1` , what is its reported Percent Effect?
Result: 16.2

Query: Return reported Percent Effect; argument: Cc1nc(CN2C(=O)COC3(CCN(Cc4nccs4)CC3)C2C)cs1 (stereo not given)
Result: 6.25

Query: I would be grateful if you could share the reported Percent Effect for c1cc(CNCC2CNc3ccnn3C2)cc(N2CCCCC2)n1 (stereo not given) .
Result: 13.5

Query: Endpoint output: Percent Effect of `O=C(c1ccc2c(c1)OCO2)N1CCC[C@]2(C[C@H](OCC3CC3)CO2)C1` . Value?
Result: 8.51

Query: Entry under review: `CCCc1nnsc1C(=O)NCC1CCN(S(C)(=O)=O)CC1` . Reported Percent Effect?
Result: 7.53

Query: Which Percent Effect is listed for `Cc1oc(-c2nc(C#N)c(N(C)C)o2)cc1S(=O)(=O)N1CCCC1` ?
Result: 1.06

Query: Requested read-out: Percent Effect. Entry: `COc1cc(C)nc(N2CCN(C(=O)CCc3cscn3)CC2)n1`
Result: 5.82

Query: Percent Effect lookup needed for O=c1[nH]c2c(c(=O)n1C1CCCCC1)CCC2NCCc1ccccc1 (stereo not given) , thanks.
Result: -3.17
